assay: Selectivity index, ratio of IC50 for African green monkey Vero cells to IC50 for Trypanosoma cruzi TINF/CH/1956/Tulahuen DTU 6 epimastigotes; format: toxicity; conditions: read-out: Ratio IC50
measured_metric: selectivity ratio

INSERT INTO assay_data (compound, endpoint_value) VALUES
  ('CCCCNc1c(N(C)CCCN(C)C)c(=O)c1=O', 48.3),
  ('CCCCCCCCCCCCCCCCOP(=O)([O-])OCC[N+](C)(C)C [MILTEFOSINE]', 0.9),
  ('CN(C)CCCN(C)c1c(NCCCN(C)CCCNc2c(N(C)CCCN(C)C)c(=O)c2=O)c(=O)c1=O', 9),
  ('CCCCCCCCCCCCCCCCNc1c(N(C)CCCN(C)C)c(=O)c1=O', 71.1),
  ('CCCCCCNc1c(N(C)CCCN(C)C)c(=O)c1=O', 61.3),
  ('CCCCCCCCCCCCOc1c(N(C)CCCN(C)C)c(=O)c1=O', 19.9),
  ('CCCCCCCCCCCC[N+](C)(C)CCCN(C)c1c(O)c(=O)c1=O', 2.4),
  ('CCCCCCCCCCCCNc1c(N(C)CCCN(C)C)c(=O)c1=O', 2.6),
  ('CCNc1c(N(C)CCCN(C)C)c(=O)c1=O', 32.4),
  ('CN(C)CCCN(C)c1c(N)c(=O)c1=O', 25.1),
  ('CCCCCCCCNc1c(N(C)CCCN(C)C)c(=O)c1=O', 14.2),
  ('CN(C)CCCN(C)c1c(N(C)CCCN(C)C)c(=O)c1=O', 3.2),
  ('CCCCCCCCCCCC[N+](C)(C)CCCN(C)c1c(OCC)c(=O)c1=O', 4);
